assay explanation: Volume of distribution at steady-state in Sprague-Dawley rat at 2 mg/kg, iv
Type: ADME, organism-based
Design: dose 2 mg/kg, route intravenous
protocol conditions: in vivo, read-out: Vdss
outcome measure: Vd (L/kg)
One number for each entry, in L/kg.

Would you mind telling me what Vd value was observed for `COc1cc2nccc(Oc3ccc(NC(=O)c4c(C)n(C)n(-c5ccccc5)c4=O)cc3F)c2cc1OC` ?
0.242

====

assay explanation: Elimination half life in Sprague-Dawley rat at 2 mg/kg, iv
Assay type: ADME, organism-based
Set-up: dose 2 mg/kg, route intravenous
protocol conditions: in vivo, read-out: beta t1/2 (converted)
outcome measure: half-life (h)
Answers are plain numbers, in h.

Can you look up the measured half-life of `COc1cc2nccc(Oc3ccc(NC(=O)c4c(C)n(C)n(-c5ccccc5)c4=O)cc3F)c2cc1OC` for me?
4.6
